System: BCR-NTRK1 BaF3 cells (Homo sapiens, UniProt P04629)
Construct: fused on or other part: P11274 (Breakpoint cluster region protein)
Sequence (P04629 510-781): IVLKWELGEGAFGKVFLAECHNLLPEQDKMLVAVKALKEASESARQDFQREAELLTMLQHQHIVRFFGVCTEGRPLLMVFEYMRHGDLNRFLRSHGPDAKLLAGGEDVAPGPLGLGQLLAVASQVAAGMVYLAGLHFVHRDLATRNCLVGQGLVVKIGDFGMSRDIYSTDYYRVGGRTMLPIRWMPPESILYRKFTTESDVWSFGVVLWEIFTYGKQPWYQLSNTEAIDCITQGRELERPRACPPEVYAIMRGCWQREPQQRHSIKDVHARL
Assay Summary: BaF3 BCR-NTRK1 cell proliferation assay (ATPlite)
Applied Conditions: read-out: Inhibition of Cell Proliferation IC50, BCR/BaF3 TrkA
pIC50: −log10 of the molar value.
Exercise: state measured pIC50 for each of the compounds provided.

As a guide, the following entries are already answered.
Compound Structure | pIC50
CCn1cc(Nc2ccc(Cc3c[nH]c4ncnc(C5CC5)c34)c(F)n2)cn1 | > 6.00
CCc1ccc(Nc2ccc(C(=O)c3c[nH]c4ncnc(Nc5ccc(C)nc5)c34)c(F)n2)cn1 | > 8.00
CCCCNc1ncnc2[nH]cc(C(=O)c3ccc(Nc4ccc(CC)nc4)nc3F)c12 | > 8.00
CCOc1ccc(Nc2ccc(C(=O)c3c[nH]c4ncnc(OC)c34)c(F)n2)cn1 | > 7.00
Cc1ccc(Nc2ccc(Cc3c[nH]c4ncc(Cl)cc34)c(F)n2)cn1 | > 6.00

Return reported pIC50 values for all items listed beneath this line.
1. CCc1ccc(Nc2ccc(Cc3c[nH]c4ncnc(OC)c34)c(F)n2)cn1
2. CCc1ccc(Nc2ccc(C(=O)c3c[nH]c4ncnc(NCC(F)(F)F)c34)c(F)n2)cn1
3. CCNc1ncnc2[nH]cc(C(=O)c3cnc(NC4CCC(F)(F)CC4)c(F)c3)c12

A)
> 8.00
> 8.00
> 6.00
